Values compiled from patent US20260209362A1.

assayed-target: T1, biotinylated recombinant human IL-12Rβ2 (human, UniProt Q99665 24-622, random biotinylated)
T1 construct: Recombinant protein produced in-house; also called hIL-12RB2; human IL-12RB2
T1 sequence: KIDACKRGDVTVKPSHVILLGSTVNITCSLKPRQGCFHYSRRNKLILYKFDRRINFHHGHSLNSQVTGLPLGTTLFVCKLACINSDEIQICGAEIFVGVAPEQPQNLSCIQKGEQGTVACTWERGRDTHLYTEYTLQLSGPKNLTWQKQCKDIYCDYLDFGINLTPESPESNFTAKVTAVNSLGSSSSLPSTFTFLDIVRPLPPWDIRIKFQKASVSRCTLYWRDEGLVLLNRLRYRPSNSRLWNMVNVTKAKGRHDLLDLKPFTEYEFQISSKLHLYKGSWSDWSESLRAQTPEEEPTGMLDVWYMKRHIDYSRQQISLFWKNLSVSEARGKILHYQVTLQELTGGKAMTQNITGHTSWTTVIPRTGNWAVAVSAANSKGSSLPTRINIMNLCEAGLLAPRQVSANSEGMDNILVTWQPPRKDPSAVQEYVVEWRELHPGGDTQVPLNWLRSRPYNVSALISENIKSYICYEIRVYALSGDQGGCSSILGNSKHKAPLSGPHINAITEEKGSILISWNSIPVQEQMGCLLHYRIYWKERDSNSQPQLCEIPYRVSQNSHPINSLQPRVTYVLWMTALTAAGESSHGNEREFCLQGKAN
method: BLI, P.E., off-rate ranking
parameter-measured: koff (s⁻¹)
Give your result in s⁻¹ as a bare value.

Recorded koff, per entry:
binder | koff (s⁻¹)
anti-IL-12Rβ2 VHH clone 2CRH53 (clone ID 20366) (VHH, not shown: small tags and cut ends, periplasmic extract) VHH: QVQLQESGGGLVQAGGSLVLSCAASGSAALIFLMSWYRQAPGKQRELVAEVSRYGSTTYADSVEGRFTISRDNAKDIVDLQMNSLKPEDTAVYYCKADQYYGDSLRSSWGRGTQVTVSS | 0.00598
anti-IL-12Rβ2 VHH clone 3CRH59 (clone ID 20385) (VHH, not shown: small tags and cut ends, periplasmic extract) VHH: QVQLQESGGGLVQPGGSLRLSCTASGFAFSSYWMYWVRQTPGKGFEWVSVVNPGGEITYYGDSMEDRFTISRDNAKNTLYLQMNSLKPEDTGLYYCARDRTTIDYTRTYYRGGQGTQVTVSS | 0.00453
anti-IL-12Rβ2 VHH clone 3CRHS2 (clone ID 20413) (VHH, not shown: small tags and cut ends, periplasmic extract) VHH: QVQLQESGGGLVQLGGSLTLSCAASGSAALIFLMSWYRQAPGKQRELVAEVSRYGSTTYADSVEGRFTISRDNAKNIVDLQMNSLKPEDTAVYYCKADQYYGDSLRSSWGRGTQVTVSS | 0.00404
anti-IL-12Rβ2 VHH clone 3CAHS180 (clone ID 20410) (VHH, not shown: small tags and cut ends, periplasmic extract) VHH: QVQLQESGGGLVQAGDSLRLSCAASGRTFDTYIVGWFRQAPGKEREFVSALSWSDDTTIRDDSLRGRFTLSRDNAKNTVYLLMNSLKPEDTAVYYCAAKAKPPAATWSSYRNREWYDYWGQGTQVTVSS | 0.00265
anti-IL-12Rβ2 VHH clone 3CAH28 (clone ID 20356) (VHH, not shown: small tags and cut ends, periplasmic extract) VHH: QVQLQESGGGLVQSGASLRLSCAASERTLSGYAMGWFRQAPGKEREFVAAIRWSGSSTYYAESVEGRFTISRDNAKNTVYLQMNILKPEDTAVYYCAAGSDYADEYDYWGQGTQVTVSS | 0.00483
anti-IL-12Rβ2 VHH clone 3CAHS52 (clone ID 20396) (VHH, not shown: small tags and cut ends, periplasmic extract) VHH: QVQLQESGGGSVQAGGSLRLSCAASGRTINAYIMGWFRQAPGKEREFVAAVSGSGGSTYYADSVKGRFTISRDNAKNTVNLQMDNLRSEDTDVYYCAATYESVYLQNPGQYDYWGQGTQVTVSS | 0.00422

Give recorded koff. anti-IL-12Rβ2 VHH clone 3CRH25 (clone ID 20378) (VHH, not shown: small tags and cut ends, periplasmic extract) VHH: QVQLQESGGGLVQAGDSLRLSCTASGHTFSRYTTIGWFRQAPGKDREFVAAIRWSGDITDYADAVKGRFTISRDNVKNTVYLQMNSLNPEDTAVYYCARGYSEYGVLSRNRGLYAYWGQGTQVTVSS 0.00205

Give recorded koff. anti-IL-12Rβ2 VHH clone 3CRH38 (clone ID 20381) (VHH, not shown: small tags and cut ends, periplasmic extract) VHH: QVQLQESGGGLVQAGGSLVLSCAASGSAALIFLMSWYRQAPGKQRELVAEVSRGGSTTYADSVEGRFTISRDNAKNIVDLQMNSLKPEDTAVYYCKADQNYGDSLRSSWGRGTQVTVSS 0.00413
